Data origin, for the record: patent US6440965B1

Listed molecules paired with reported melting point

The examples below pair each entry with its known result.
Smiles String | Endpoint Result
Cl.Nc1ncc(Oc2ccc(Cl)cc2)c(NCCOCCO)n1 | 140 to 141 °C
Nc1ncc(Oc2ccc(Cl)cc2)c(N2CCN(CCO)CC2)n1 | 121 to 123 °C
O=C(Nc1ccccc1)Nc1ncc(Oc2ccc(Cl)cc2)c(N2CCOCC2)n1 | 229 to 231 °C
CN(C)c1nc(N)ncc1Cc1ccccc1 | 181 to 182 °C
Nc1ncc(Oc2ccc(Cl)cc2)c(N2CCNCC2)n1 | 93 to 95 °C
CC(C)(C)C(=O)OCCN1CCN(c2nc(N)ncc2Oc2ccc(Cl)cc2)CC1 | 123 to 125 °C
Nc1ncc(Oc2ccc(Cl)cc2)c(N2CCOCC2)n1 | 138 to 140 °C

# ---- query molecule ----
Give the measured melting point of CC(=O)N1CCN(c2nc(N)ncc2Oc2ccc(Cl)cc2)CC1 .
153 to 157 °C
